# System: Escherichia coli TOP10
# testName: shrunken log2 fold change of peptide-encoding DNA abundance (4.5 h post-induction vs induction); higher = less antimicrobial activity (less host growth inhibition)
# recordedConditions: time post-induction: 4.5 h; library: site-saturation at positions 5, 18, 19, 20
measure: shrunken log2 fold change
Note: the reply should be a number with no unit written.

Below are worked cases with known answers.
[[record]]
residuesequence = "RRIRWRPPRLPRPRPRPPCYPRP"
measure = "shrunken log2 fold change"
numericresult = -0.436

[[record]]
residuesequence = "RRIRLRPPRLPRPRPRPNWNPRP"
measure = "shrunken log2 fold change"
numericresult = -0.386

[[record]]
residuesequence = "RRIRIRPPRLPRPRPRPGWDPRP"
measure = "shrunken log2 fold change"
numericresult = 0.105


**Q:** What value of measured shrunken log2 fold change is listed for RRIRFRPPRLPRPRPRPCQHPRP ?
**A:** -0.397

###

# System: Escherichia coli TOP10
# testName: shrunken log2 fold change of peptide-encoding DNA abundance (4.5 h post-induction vs induction); higher = less antimicrobial activity (less host growth inhibition)
# recordedConditions: time post-induction: 4.5 h; library: site-saturation at positions 5, 18, 19, 20
measure: shrunken log2 fold change

Below are worked cases with known answers.
[[record]]
residuesequence = "RRIRKRPPRLPRPRPRPWDPPRP"
result = -0.235

[[record]]
residuesequence = "RRIRCRPPRLPRPRPRPDCMPRP"
result = 0.0384

[[record]]
residuesequence = "RRIRCRPPRLPRPRPRPCPDPRP"
result = -0.612


Read the next record carefully.
**Q:** What value of measured shrunken log2 fold change is listed for RRIRFRPPRLPRPRPRPSCTPRP ?
**A:** -0.407

###

# Test system: Escherichia coli TOP10
# testName: shrunken log2 fold change of peptide-encoding DNA abundance (4.5 h post-induction vs induction); higher = less antimicrobial activity (less host growth inhibition)
# recordedConditions: time post-induction: 4.5 h; library: site-saturation at positions 5, 18, 19, 20
measure: shrunken log2 fold change
Note: the reply should be a number with no unit written.

[[record]]
residuesequence = "RRIRSRPPRLPRPRPRPPWRPRP"
measure = "shrunken log2 fold change"
numericresult = 0.614

[[record]]
residuesequence = "RRIRCRPPRLPRPRPRPTFMPRP"
measure = "shrunken log2 fold change"
numericresult = -0.513

[[record]]
residuesequence = "RRIRMRPPRLPRPRPRPDDNPRP"
measure = "shrunken log2 fold change"
numericresult = 2.27


**Q:** Request body: readout shrunken log2 fold change, system Escherichia coli TOP10, query RRIRCRPPRLPRPRPRPELYPRP . Return the value.
**A:** 0.221

**Q:** Then RRIRIRPPRLPRPRPRPRQLPRP ?
**A:** -0.27

**Q:** Then RRIRNRPPRLPRPRPRPPSYPRP ?
**A:** -0.14

**Q:** Then RRIRARPPRLPRPRPRPKLWPRP ?
**A:** 1

**Q:** Then RRIRLRPPRLPRPRPRPTNEPRP ?
**A:** -0.127

**Q:** Then RRIRARPPRLPRPRPRPYHGPRP ?
**A:** -1.67

**Q:** Then RRIRWRPPRLPRPRPRPYFNPRP ?
**A:** -1.06

**Q:** Then RRIRDRPPRLPRPRPRPKSWPRP ?
**A:** 0.421

**Q:** Then RRIRWRPPRLPRPRPRPMKEPRP ?
**A:** -0.23

**Q:** Then RRIRGRPPRLPRPRPRPIDVPRP ?
**A:** 0.0296

**Q:** Then RRIRIRPPRLPRPRPRPEAAPRP ?
**A:** 0.538

**Q:** Then RRIRGRPPRLPRPRPRPMLAPRP ?
**A:** 1.9

###

# Test system: Escherichia coli TOP10
# testName: shrunken log2 fold change of peptide-encoding DNA abundance (4.5 h post-induction vs induction); higher = less antimicrobial activity (less host growth inhibition)
# recordedConditions: time post-induction: 4.5 h; library: site-saturation at positions 5, 18, 19, 20
measure: shrunken log2 fold change
Note: the reply should be a number with no unit written.

[[record]]
residuesequence = "RRIRQRPPRLPRPRPRPYDLPRP"
numericresult = -0.0546

[[record]]
residuesequence = "RRIRDRPPRLPRPRPRPTTIPRP"
numericresult = -0.121

[[record]]
residuesequence = "RRIRARPPRLPRPRPRPQPKPRP"
numericresult = 0.465


**Q:** What value of measured shrunken log2 fold change is listed for RRIRTRPPRLPRPRPRPGGFPRP ?
**A:** 0.413

**Q:** Then RRIRFRPPRLPRPRPRPPDDPRP ?
**A:** 0.371

**Q:** Then RRIRWRPPRLPRPRPRPCHWPRP ?
**A:** -0.116

**Q:** Then RRIRTRPPRLPRPRPRPAWNPRP ?
**A:** -0.0659

**Q:** Then RRIRVRPPRLPRPRPRPLMHPRP ?
**A:** -0.249

**Q:** Then RRIRERPPRLPRPRPRPELCPRP ?
**A:** 0.511

**Q:** Then RRIRHRPPRLPRPRPRPEVNPRP ?
**A:** 0.062

**Q:** Then RRIRDRPPRLPRPRPRPWNEPRP ?
**A:** -0.195

**Q:** Then RRIRLRPPRLPRPRPRPWPHPRP ?
**A:** 0.0514

**Q:** Then RRIRTRPPRLPRPRPRPPRNPRP ?
**A:** 1.27

**Q:** Then RRIRDRPPRLPRPRPRPQCQPRP ?
**A:** -0.00822

###

# System: Escherichia coli TOP10;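 further: peptides expressed intracellularly from a pBAD plasmid library in pooled LB shake-flask culture, induced with 0.3% L-arabinose, DNA abundance read by NGS, three biological replicates, DESeq2 with apeglm shrinkage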
# testName: shrunken log2 fold change of peptide-encoding DNA abundance (4.5 h post-induction vs induction); higher = less antimicrobial activity (less host growth inhibition)
# recordedConditions: time post-induction: 4.5 h; library: site-saturation at positions 5, 18, 19, 20
Listing: shrunken log2 fold change of selected sequences
Note: the reply should be a number with no unit written.

Below are worked cases with known answers.
[[record]]
residuesequence = "RRIRSRPPRLPRPRPRPDQLPRP"
targetentity = "Escherichia coli TOP10"
measure = "shrunken log2 fold change"
numericresult = -0.167

[[record]]
residuesequence = "RRIRKRPPRLPRPRPRPKEKPRP"
targetentity = "Escherichia coli TOP10"
measure = "shrunken log2 fold change"
numericresult = 0.0508

[[record]]
residuesequence = "RRIRKRPPRLPRPRPRPEHCPRP"
targetentity = "Escherichia coli TOP10"
measure = "shrunken log2 fold change"
numericresult = 0.0607


**Q:** What value of measured shrunken log2 fold change is listed for RRIRHRPPRLPRPRPRPVSRPRP ?
**A:** -0.0482

**Q:** Then RRIRLRPPRLPRPRPRPPSYPRP ?
**A:** 0.119

**Q:** Then RRIRLRPPRLPRPRPRPFWMPRP ?
**A:** -0.0876

**Q:** Then RRIRKRPPRLPRPRPRPSKRPRP ?
**A:** 0.0981

**Q:** Then RRIRNRPPRLPRPRPRPNDCPRP ?
**A:** 0.0423

**Q:** Then RRIRIRPPRLPRPRPRPILGPRP ?
**A:** -0.0266

**Q:** Then RRIRWRPPRLPRPRPRPVDSPRP ?
**A:** 0.183

**Q:** Then RRIRHRPPRLPRPRPRPFVNPRP ?
**A:** -0.124

**Q:** Then RRIRTRPPRLPRPRPRPFKYPRP ?
**A:** -0.114

**Q:** Then RRIRHRPPRLPRPRPRPKEYPRP ?
**A:** -0.0937

**Q:** Then RRIRPRPPRLPRPRPRPWQFPRP ?
**A:** 0.00677

**Q:** Then RRIRARPPRLPRPRPRPHIPPRP ?
**A:** -0.671

**Q:** Then RRIRNRPPRLPRPRPRPFDIPRP ?
**A:** -0.701

**Q:** Then RRIRKRPPRLPRPRPRPFDCPRP ?
**A:** -0.128

**Q:** Then RRIRQRPPRLPRPRPRPFCTPRP ?
**A:** -0.246

**Q:** Then RRIRDRPPRLPRPRPRPTLAPRP ?
**A:** 0.933

**Q:** Then RRIRQRPPRLPRPRPRPSGKPRP ?
**A:** -0.147

**Q:** Then RRIRNRPPRLPRPRPRPYQRPRP ?
**A:** -0.0199

**Q:** Then RRIRDRPPRLPRPRPRPESQPRP ?
**A:** -0.0206

**Q:** Then RRIRQRPPRLPRPRPRPAMWPRP ?
**A:** 0.579

**Q:** Then RRIRSRPPRLPRPRPRPRWTPRP ?
**A:** 0.0635

**Q:** Then RRIRRRPPRLPRPRPRPPYRPRP ?
**A:** 0.113

**Q:** Then RRIRARPPRLPRPRPRPYMNPRP ?
**A:** -0.337

**Q:** Then RRIRDRPPRLPRPRPRPERGPRP ?
**A:** 0.689
